These entries and their values trace back to patent US12624034B2.

Target: AKT2 (Homo sapiens, UniProt P31751)
Construct: expressed in transfected cells; host or cells: HEK293
Sequence (P31751 whole entry): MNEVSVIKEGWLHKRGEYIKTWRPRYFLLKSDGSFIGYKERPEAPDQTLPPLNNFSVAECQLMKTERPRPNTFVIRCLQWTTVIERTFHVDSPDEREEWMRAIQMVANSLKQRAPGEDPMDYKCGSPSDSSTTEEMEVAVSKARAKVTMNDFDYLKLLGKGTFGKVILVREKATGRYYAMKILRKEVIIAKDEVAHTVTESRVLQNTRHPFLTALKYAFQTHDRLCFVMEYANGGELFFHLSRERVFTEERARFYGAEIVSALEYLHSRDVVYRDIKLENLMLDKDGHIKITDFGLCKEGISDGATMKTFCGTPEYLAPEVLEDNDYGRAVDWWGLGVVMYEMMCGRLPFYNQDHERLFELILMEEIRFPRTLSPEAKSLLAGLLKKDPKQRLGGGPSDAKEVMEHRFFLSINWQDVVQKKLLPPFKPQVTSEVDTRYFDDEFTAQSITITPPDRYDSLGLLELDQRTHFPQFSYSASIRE
Experiment: Live cell AKT2 target engagement by NanoBRET competitive probe displacement in HEK293 cells
Type: binding
Settings: NanoBRET live cell target engagement, HEK293 cells, 2 h at 37° C.; read-out: AKT2 IC50
Method: Determining live cell AKT1 E17K, AKT1 WT, and AKT2 target engagement by NanoBRET competitive probe displacement. […] Briefly, HEK293 cells were transfected with plasmids encoding kinase-NanoLuciferase fusion proteins overnight. […] After incubation for 2 h at 37° C., luciferase substrate and extracellular luciferase inhibitor were added to all wells, and luminescent intensity at 460 nm and 600 nm were measured on a multimode plate-reader. […]
outcome-measure: pIC50
The value called pIC50 is obtained by taking minus log10 of the concentration in mol/L.

| compound | outcome-measure | recorded-result |
| --- | --- | --- |
| Nc1ncccc1-c1nc2ccc(-n3cccn3)nc2n1-c1ccc2c(c1)CC[C@@H]2NC(=O)c1ccc(O)c(Cl)c1 | pIC50 | 7.22 |
| Nc1ncccc1-c1nc2ccc(-n3cccn3)nc2n1-c1ccc2c(c1)CC[C@@H]2n1cc(C2CCO2)nn1 (stereo partly shown) [Compound 354] | pIC50 | 6.05 |
| Cn1nc(C(=O)N[C@H]2CCc3cc(-n4c(-c5cccnc5N)nc5ccc(-n6cccn6)nc54)ccc32)c2c1OCC2 | pIC50 | 6.98 |

Now consider the entry below.
// returns reported pIC50 for input Nc1ncccc1-c1nc2ccc(-n3cccn3)nc2n1-c1ccc2c(c1)CC[C@@H]2NC(=O)c1cnc2nccn2c1
6.25

---

Target: AKT1 WT (Homo sapiens)
Construct: expressed in transfected cells; host or cells: HEK293
Experiment: Live cell AKT1 WT target engagement by NanoBRET competitive probe displacement in HEK293 cells
Format: binding
Settings: NanoBRET live cell target engagement, HEK293 cells, 2 h at 37° C.; read-out: AKT1 WT IC50
Listed here: items and their measured pIC50.
The value called pIC50 is obtained by taking minus log10 of the concentration in mol/L.

Worked cases, pIC50 given:
| compound | recorded-result |
| --- | --- |
| Cc1ncccc1C(=O)N[C@H]1CCc2cc(-n3c(-c4cccnc4N)nc4ccc(-c5ncco5)nc43)ccc21 | 7.02 |
| Nc1ncccc1-c1nc2ccc(-n3cccn3)nc2n1-c1ccc2c(c1)CC[C@@H]2N1CCC1 | 6.83 |
| Nc1ncccc1-c1nc2ccc(-n3cccn3)nc2n1-c1ccc2c(c1)CC[C@@H]2NC(=O)Nc1ccccc1 | 7.12 |
| N#Cc1ccc(C(=O)N[C@H]2CCc3cc(-n4c(-c5cccnc5N)nc5ccc(-n6cccn6)nc54)ccc32)cc1 | 8.20 |
| Nc1ncccc1-c1nc2ccc(-n3cccn3)nc2n1-c1ccc2c(c1)CC[C@@H]2NC(=O)c1ccccc1F | 8.21 |

// returns reported pIC50 for input Cc1ncccc1OCC1CCc2cc(-n3c(-c4cccnc4N)nc4ccc(-n5cccn5)nc43)ccc21 (single isomer, unassigned) [Compound 252]
6.22

// returns reported pIC50 for input Cc1ccncc1C(=O)N[C@H]1CCc2cc(-n3c(-c4cccnc4N)nc4ccc(-n5cccn5)nc43)ccc21
7.47

// returns reported pIC50 for input Cc1cn2cc(C(=O)N[C@H]3CCc4cc(-n5c(-c6cccnc6N)nc6ccc(-n7cccn7)nc65)ccc43)ccc2n1
8.10

// returns reported pIC50 for input Nc1ncccc1-c1nc2ccc(-n3cccn3)nc2n1-c1ccc2c(c1)CC[C@@H]2NC(=O)c1cnc(C(F)F)c(F)c1
8.30

// returns reported pIC50 for input COc1cc(C(=O)N[C@H]2CCc3cc(-n4c(-c5cccnc5N)nc5ccc(-n6cccn6)nc54)ccc32)cc(C)n1
8.56

// returns reported pIC50 for input N#Cc1cc(-n2ccc(F)n2)nc2c1nc(-c1cccnc1N)n2-c1ccc2c(c1)CC[C@@H]2NC(=O)c1ccc(C(F)F)nc1
7.83

// returns reported pIC50 for input Cc1nncn1[C@H]1CCc2cc(-n3c(-c4cccnc4N)nc4ccc(-n5cccn5)nc43)ccc21
7.41

// returns reported pIC50 for input C#Cc1cc(C(=O)N[C@H]2CCc3cc(-n4c(-c5cccnc5N)nc5ccc(-n6cccn6)nc54)ccc32)ccn1
7.95

// returns reported pIC50 for input Nc1ncccc1-c1nc2c(F)cc(-n3cccn3)nc2n1-c1ccc2c(c1)CC[C@@H]2NC(=O)c1ccc(C(F)F)nc1
7.94

// returns reported pIC50 for input Nc1ncccc1-c1nc2ccc(-n3cccn3)nc2n1-c1ccc2c(c1)CC[C@@H]2NC(=O)c1cc2n(n1)CCO2
7.15

// returns reported pIC50 for input COc1cc(C(=O)N[C@H]2CCc3cc(-n4c(-c5cccnc5N)nc5ccc(-n6cccn6)nc54)ccc32)cc(F)n1
8.10

// returns reported pIC50 for input CN(C)Cc1cn([C@H]2CCc3cc(-n4c(-c5cccnc5N)nc5ccc(-n6cccn6)nc54)ccc32)nn1
6.19

// returns reported pIC50 for input CC(=O)Nc1c(F)cc(C(=O)N[C@H]2CCc3cc(-n4c(-c5cccnc5N)nc5ccc(-n6cccn6)nc54)ccc32)cc1F
8.28

// returns reported pIC50 for input Cn1c(=O)[nH]c2ccc(C(=O)N[C@H]3CCc4cc(-n5c(-c6cccnc6N)nc6ccc(-n7cccn7)nc65)ccc43)cc21
7.87

// returns reported pIC50 for input Nc1ncccc1-c1nc2ccc(-n3cccn3)nc2n1-c1ccc2c(c1)CC[C@@H]2NC(=O)c1cnc2c(c1)COC2
8.19

---

Target: AKT1 WT (Homo sapiens, UniProt P31749)
Construct: expressed in transfected cells; host or cells: HEK293
Sequence (P31749 whole entry): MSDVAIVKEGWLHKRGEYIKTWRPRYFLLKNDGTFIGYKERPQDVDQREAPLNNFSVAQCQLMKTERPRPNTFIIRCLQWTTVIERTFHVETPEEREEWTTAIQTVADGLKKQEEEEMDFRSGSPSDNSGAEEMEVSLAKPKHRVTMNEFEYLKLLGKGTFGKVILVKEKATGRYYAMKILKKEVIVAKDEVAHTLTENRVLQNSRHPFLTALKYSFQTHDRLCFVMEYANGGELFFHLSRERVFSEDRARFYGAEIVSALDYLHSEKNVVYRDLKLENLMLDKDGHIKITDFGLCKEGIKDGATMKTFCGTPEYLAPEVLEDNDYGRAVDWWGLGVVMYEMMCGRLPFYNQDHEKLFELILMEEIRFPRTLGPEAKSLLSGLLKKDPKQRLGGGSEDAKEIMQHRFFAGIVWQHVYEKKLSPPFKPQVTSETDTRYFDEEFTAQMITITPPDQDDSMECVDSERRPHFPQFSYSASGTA
Experiment: Live cell AKT1 WT target engagement by NanoBRET competitive probe displacement in HEK293 cells
Type: binding
Details: NanoBRET live cell target engagement, HEK293 cells, 2 h at 37° C.; read-out: AKT1 WT IC50
Protocol: Determining live cell AKT1 E17K, AKT1 WT, and AKT2 target engagement by NanoBRET competitive probe displacement. […] Briefly, HEK293 cells were transfected with plasmids encoding kinase-NanoLuciferase fusion proteins overnight. […] After incubation for 2 h at 37° C., luciferase substrate and extracellular luciferase inhibitor were added to all wells, and luminescent intensity at 460 nm and 600 nm were measured on a multimode plate-reader. […]
outcome-measure: pIC50
The value called pIC50 is obtained by taking minus log10 of the concentration in mol/L.

Worked cases, pIC50 given:
| compound | outcome-measure | recorded-result |
| --- | --- | --- |
| Nc1ncccc1-c1nc2ccc(-c3ccn(C(F)F)n3)nc2n1-c1ccc2c(c1)CC[C@@H]2NC(=O)c1ccc(C(F)F)nc1 | pIC50 | 8.31 |
| Cc1cc(-n2cccn2)nc2c1nc(-c1cccnc1N)n2-c1ccc2c(c1)CC[C@@H]2NC(=O)c1ccc(C(F)F)nc1 | pIC50 | 7.92 |

// returns reported pIC50 for input Nc1ncccc1-c1nc2ccc(-n3cccn3)nc2n1-c1ccc2c(c1)CC[C@@H]2NC(=O)c1ccc(C(F)F)nc1
7.98

// returns reported pIC50 for input Nc1ncc(C(=O)N[C@H]2CCc3cc(-n4c(-c5cccnc5N)nc5ccc(-n6cccn6)nc54)ccc32)cc1F
8.15

// returns reported pIC50 for input Nc1ncccc1-c1nc2ccc(-n3cccn3)nc2n1-c1ccc2c(c1)CC[C@@H]2n1cc(C2CCC2)nn1
7.77

// returns reported pIC50 for input Cc1cnc(C(=O)N[C@H]2CCc3cc(-n4c(-c5cccnc5N)nc5ccc(-n6cccn6)nc54)ccc32)c(C)n1
6.82

// returns reported pIC50 for input Cc1ncccc1OCC1CCc2cc(-n3c(-c4cccnc4N)nc4ccc(-n5cccn5)nc43)ccc21 (single isomer, unassigned) [Compound 253]
7.18

---

Molecular target: AKT1 WT (Homo sapiens, UniProt P31749)
Construct: expressed in transfected cells; host or cells: HEK293
Assay: Live cell AKT1 WT target engagement by NanoBRET competitive probe displacement in HEK293 cells
Assay type: binding
Conditions: NanoBRET competitive probe displacement, live HEK293 cells, 2 h at 37° C.; read-out: AKT1 WT IC50
pIC50: −log10 of the molar value.
Outcome label depends on pIC50 relative to 7: at/above gives T, below gives F.

| compound | target-under-test | assigned-category |
| --- | --- | --- |
| CSc1ccn(-c2ccc3nc(-c4cccnc4N)n(-c4ccc5c(c4)CC[C@@H]5NC4CCN(C(=O)C5CC5)CC4)c3n2)n1 | AKT1 WT (Homo sapiens, UniProt P31749) | T |
| Nc1ncccc1-c1nc2ccc(-n3cccn3)nc2n1-c1ccc2c(c1)CC[C@@H]2NC1CCc2cnccc2C1 (stereo partly shown) [Compound 464] | AKT1 WT (Homo sapiens, UniProt P31749) | T |
| Nc1ncccc1-c1nc2ccc(-n3ccc(NC4CC4)n3)nc2n1-c1ccc2c(c1)CC[C@@H]2NC1CCN(C(=O)C2CC2)CC1 | AKT1 WT (Homo sapiens, UniProt P31749) | T |
| Cc1nc(C2CC2)ccc1C(=O)N[C@H]1CCc2cc(-n3c(-c4cccnc4N)nc4ccc(-n5nccn5)nc43)ccc21 | AKT1 WT (Homo sapiens, UniProt P31749) | T |
| Nc1ncccc1-c1nc2ccc(-n3cccn3)nc2n1-c1ccc2c(c1)CC[C@@H]2NC1CCN(C(=O)C2COC2)CC1 | AKT1 WT (Homo sapiens, UniProt P31749) | F |
| Nc1ncccc1-c1nc2ccc(-n3cccn3)nc2n1-c1ccc2c(c1)CC[C@@H]2NC1CCc2nc(C(F)F)sc21 (stereo partly shown) [Compound 600] | AKT1 WT (Homo sapiens, UniProt P31749) | F |
| COc1ccn(-c2ccc3nc(-c4cccnc4N)n(-c4ccc5c(c4)CC[C@@H]5NC4CN(C(=O)C5CC5)C4)c3n2)n1 | AKT1 WT (Homo sapiens, UniProt P31749) | T |
| Cc1ccc(C(=O)N[C@H]2CCc3cc(-n4c(-c5cccnc5N)nc5ccc(-c6ncn(C)n6)nc54)ccc32)cn1 | AKT1 WT (Homo sapiens, UniProt P31749) | F |

Check the entry Cc1ccc(C(=O)N[C@H]2CCc3cc(-n4c(-c5cccnc5N)nc5ccc(-n6ncnc6C6CC6)nc54)ccc32)cn1 : does pIC50 equal or exceed 7?
F

Check the entry Cc1ccc(C(=O)N[C@H]2CCc3cc(-n4c(-c5cccnc5N)nc5ccc(C#CC6CC6)nc54)ccc32)cn1 : does pIC50 equal or exceed 7?
T
